# System: RAW-Dual (murine macrophage reporter line)
# experiment_notes: IRF reporter (Lucia luciferase) activity fold change vs agonist alone; higher = enhanced IRF activity
# experimental_parameters: modulator concentration 10 µM; agonist: 3'3'-cGAMP 10 ug/mL
metric_name: IRF reporter

CC1(C)CC(=O)C2=C(C1)OC(N)=C(C#N)C21CCCCC1: 0.867
O=C(CCc1csc(NC(=O)c2ccco2)n1)Nc1ccc(Cl)cc1: 0.883
Cl.Cn1cc(C(=O)[C@@H]2CCc3nc[nH]c3C2)c2ccccc21: 0.906
OC1(c2ccc(Cl)c(C(F)(F)F)c2)CCN(CCCC(c2ccc(F)cc2)c2ccc(F)cc2)CC1: 0.0719
Nc1nc(NC2CC2)c2ncn([C@H]3C=C[C@@H](CO)C3)c2n1 [Prestw-1512]: 0.935
CCOC(=O)c1c(C)nn(C2CCCCC2)c1N: 0.954
COC(=O)c1ccccc1NC(=O)CCc1ccc(Oc2cc([N+](=O)[O-])cc([N+](=O)[O-])c2)cc1: 0.431
CC(NC(=O)COc1ccc(C=NNC(=O)c2ccccc2O)cc1)c1ccccc1 (stereo not drawn): 0.985
Brc1ccc(Cn2c(CN3CCCC3)nc3ccccc32)cc1: 0.775
Cc1c(C(=O)NN2CCCCC2)nn(-c2ccc(Cl)cc2Cl)c1-c1ccc(Cl)cc1: 0.282
CS(=O)(=O)N(CC(=O)Nc1ccccc1Cl)c1ccc(Cl)c(C(F)(F)F)c1: 1.52
O=C(NC1CCCCC1)N(Cc1cnc2ccccn12)c1ccccc1: 0.997
CCCc1nc(-c2ccccc2)c(-c2ccc(OC)c(OC)c2)c(=O)[nH]1: 0.933
c1ccc(Nc2nc(Nc3ccccc3)nc(N3CCCCC3)n2)cc1: 1.05
CCOC(=O)N1CCC(=C2c3ccc(Cl)cc3CCc3cccnc32)CC1: 0.725
Cc1c(C(=O)OC(C)C)sc(NC(=O)C(C)(C)C)c1C(=O)OC(C)C: 1
CCOc1ccc(S(=O)(=O)N2C3CCC2CC(S(=O)(=O)c2ccccc2)C3)cc1 (stereo not drawn): 0.977
O=C(NCc1cccc(Cl)c1)c1cnc2n(c1=O)CCS2: 0.976
Oc1ccc2ccccc2c1SSc1c(O)ccc2ccccc12: 0.09
COc1cccc(-n2c(SCc3ccc(F)cc3)nc3c([nH]c4ccccc43)c2=O)c1: 0.717
Cc1cccc(CSc2nn3c(=O)c(C)nnc3s2)c1: 0.925
C#Cc1cccc(Nc2ncnc3cc(OC)c(OCCCCCCC(=O)NO)cc23)c1: 0.563
O=C(Nc1ccc(S(=O)(=O)Nc2ccc(F)cc2)cc1)C(F)(F)F: 1.12
CC(C)NC(=N)NC(=N)Nc1ccc(Cl)cc1 [Prestw-999]: 0.994
Cc1cc(OC2CN(C(=O)Cc3c[nH]c4ccccc34)C2)cc(=O)n1C1CC1: 1
CC(C)CSc1nnc2c(n1)[nH]c1ccccc12: 0.955
O=C(C=Cc1cc([N+](=O)[O-])ccc1O)c1ccc(Cl)cc1: 0.496
CCOc1ccc(Cc2cc([C@@H]3O[C@H](SC)[C@@H](O)[C@H](O)[C@H]3O)ccc2Cl)cc1: 1.03
CCOC(=O)c1ccc2nc(NC(=O)c3ccco3)sc2c1: 0.996
CN(C)c1ccc(C=NN2C(=O)c3cccc4cccc(c34)C2=O)cc1: 1
CN(C)CCCN1c2ccccc2Sc2ccc(Cl)cc21 [Prestw-64]: 0.71
CNC(C)CCC=C(C)C.CNC(C)CCC=C(C)C (stereo not drawn) [Prestw-1023]: 1
Cc1c(F)cc(C(=O)NC2CC2)cc1-c1ccc(C(=O)NCC(C)(C)C)cn1: 1.1
Cc1ccc2[nH]c3nc(C)cc(C)c3c(=O)c2c1: 1.01
CCCC1CC(C(=O)NC(C(C)O)C2OC(SC)C(O)C(O)C2O)N(C)C1.Cl (stereo not drawn): 0.956
COc1cccc(-c2csc(C(C#N)=CNc3cc(Cl)ccc3OC)n2)c1: 0.964
Cc1n[nH]c(C)c1CCC(=O)NC1CCC(F)(F)CC1: 0.955
CCN(CC)c1ccc(C=NNC(=O)c2ccccc2)c(O)c1: 0.0729
CN1C(=O)C(=C2SC(=S)N(C(CCC(=O)O)C(=O)O)C2=O)c2ccccc21 (stereo not drawn): 0.942
CCCCC(=O)N(Cc1ccc(-c2ccccc2-c2nn[nH]n2)cc1)C(C(=O)O)C(C)C (stereo not drawn): 0.71
N#C[C@@H]1CCCN1C(=O)CNC12CC3CC(CC(O)(C3)C1)C2: 0.863
CCOc1ccc(C=C2SC(=S)N(C)C2=O)cc1: 0.962
O=C(CSc1nnnn1-c1ccccc1)NC12CC3CC(CC(C3)C1)C2: 0.96

====

# System: RAW-Dual (murine macrophage reporter line)
# experiment_notes: NF-kB reporter (SEAP) activity fold change vs agonist alone; higher = enhanced NF-kB activity
# experimental_parameters: modulator concentration 10 µM; agonist: MPLA […]
Given measured NF-kB reporter, output TRUE if it is greater than or equal to 1 and FALSE if not.

Clc1cccc(Nc2nc(-c3ccccn3)cs2)c1: FALSE
CC(C)(O)c1ccccc1CC[C@@H](SCC1(CC(=O)O)CC1)c1cccc(/C=C/c2ccc3ccc(Cl)cc3n2)c1 [Prestw-1189]: TRUE
CN(C)c1nc(CNS(C)(=O)=O)nc(N2CCCCC2)n1: TRUE
Nc1ccn([C@@H]2O[C@H](CO)[C@@H](O)C2(F)F)c(=O)n1: TRUE
Cc1ccc(-n2ncc3c(SCC(=O)NC(C)(C)C)ncnc32)c(C)c1: TRUE
COC1(c2ccc(Cl)cc2)OC(=O)c2ccccc21 (stereo not drawn): TRUE
OC1C=C2CCN3Cc4cc5c(cc4C(C1O)C23)OCO5 (stereo not drawn): TRUE
O=C(O)CCCNc1c(C(=O)Nc2ccc(Cl)cc2)cc([N+](=O)[O-])cc1[N+](=O)[O-]: FALSE
CC(C)CN(C[C@@H](O)[C@H](Cc1ccccc1)NC(=O)O[C@H]1CO[C@H]2OCC[C@H]21)S(=O)(=O)c1ccc(N)cc1: TRUE
CC(N)C12CC3CC(CC(C3)C1)C2 (stereo not drawn): TRUE
COc1ccc(S(=O)(=O)NCCn2nc(C(F)(F)F)cc2C2CC2)cc1: TRUE
CN(C)CCCN1c2ccccc2Sc2ccccc21.Cl: TRUE
O=C(O)CCc1nc(-c2ccccc2)c(-c2ccccc2)o1: TRUE
O=C(CN(CCc1ccccc1)S(=O)(=O)c1ccc(Cl)cc1)NCc1ccncc1: FALSE
O=S(=O)(c1cccc2ccccc12)n1nnc2ccccc21: TRUE
COc1ccc(C2=CC(c3cc(OC)c(OC)c(OC)c3)n3ncnc3N2)cc1 (stereo not drawn): TRUE
Cc1nc(SCC(=O)N2CCCCCC2)[nH]c(=O)c1C: FALSE
CCOC(=O)Nc1ccc(NCc2ccc(F)cc2)nc1N.O=C(O)/C=C/C(=O)O: FALSE
O=S(=O)(NCc1ccc(-c2cccnc2)nc1)c1ccc(OC(F)(F)F)cc1: FALSE
O=C(NCC(O)(c1ccccc1)C(F)(F)F)c1ccc(Br)o1 (stereo not drawn): FALSE
COC1CC2CCC(C1)N2S(=O)(=O)c1ccc(Br)cc1 (stereo not drawn): FALSE
COc1ccc(C(=O)C=Cc2cc(OC)c(OC)c(OC)c2)c(O)c1: FALSE
CCOC(=O)C1=C(Nc2ccccc2)SC(=Cc2ccc(O)c(OCC)c2)C1=O: TRUE
CN(C)CCCNc1cc(C(C)(C)C)nc2c(-c3ccccc3)cnn12: TRUE
CNC1(C)C2CCC(C2)C1(C)C.Cl (stereo not drawn): FALSE
FC(F)(F)c1nnc2ccc(NC3CCN(c4ncnc5c4CCCC5)CC3)nn12: TRUE
CNc1ncnc2c1ncn2[C@@H]1O[C@H](CO)[C@@H](O)[C@H]1O [Prestw-338]: TRUE
CCc1cccc2c3c([nH]c12)C(CC)(CC(=O)O)OCC3 (stereo not drawn) [Prestw-231]: TRUE
Cc1ccc(S(=O)(=O)c2ccc(O)c(O)c2)cc1: TRUE
CC(O)(CNC(=O)NCc1ccc(F)cc1)c1ccc(-c2ccccc2)cc1 (stereo not drawn): FALSE
CCS(=O)(=O)O.COC(=O)c1ccc2c(c1)NC(=O)/C2=C(\Nc1ccc(N(C)C(=O)CN2CCN(C)CC2)cc1)c1ccccc1: TRUE
Cc1cc(=O)nc(SCCc2ccccc2)[nH]1: TRUE
Cc1nonc1OC(C)CNc1ccc([N+](=O)[O-])cc1 (stereo not drawn): TRUE
COc1ccccc1N1C(=O)C(=Cc2ccc3c(c2)OCO3)SC1=S: FALSE
COCC(=O)N1CCC2(CC1)NC(=O)N(Cc1ccc(Cl)cc1)C2=O: TRUE
C[C@H](Nc1ncnc2[nH]cnc12)c1cc2cccc(Cl)c2c(=O)n1-c1ccccc1: FALSE
COc1ccc(C2N3CC4(C)CN2CC(C)(C3)C4O)cc1 (stereo not drawn): FALSE
Cc1c(C)n2c3c(=O)n(Cc4ccccc4F)c(=O)n(C)c3nc2n1CCCN1CCOCC1: FALSE
